These measurements were taken from PubChem BioAssay (Tox21).

Assay: qHTS assay to identify small molecule HDAC inhibitors (AID 1259364);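 further: wild-type HCT-116 cells with endogenous class I/II HDAC activity; nearly all actives have a fitted effect of over 45% in size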
Conditions: HCT-116 HDAC-Glo I/II luminescence, 2 h; series mostly up to 92.4 µM
Records with an inconclusive call do not appear. Activity calls are given as the source filed them. The call rests on the fitted dose curve; in most records, active means well fitted inhibition curve with a large enough effect in the repeat runs; inconclusive means weak or mixed curves; inactive means flat fitted curve, though single readings scatter.
The reply should be one of these categories: YES (active), NO (inactive)

Inquiry: What did the test return for COC(=O)C(Br)CBr (configuration not stated) ?
Reply text: NO

Inquiry: Recorded test outcome, item `O=C(CBr)Nc1ccc(Cl)cc1C(=O)c1ccccc1F`
Reply text: NO

Inquiry: Call for entry `CC(C)(OO)c1ccccc1` :
Reply text: NO

Inquiry: Fill in: this test's call for `N#CCc1ccccc1` is ___
Reply text: NO

Inquiry: Can you look up the reported call for `O=C(CBr)OCc1ccccc1` for me?
Reply text: NO

Inquiry: In this assay, the call recorded for `CN1C[C@H](CNC(=O)OCc2ccccc2)C[C@@H]2c3cccc4c3c(cn4C)C[C@H]21` was what?
Reply text: NO

Inquiry: Tell me the assay call for `C=CC(=O)OCC(C)C` please.
Reply text: YES

Inquiry: # outcome recorded in this test, key = `CCN(C)N=O`
Reply text: NO

Inquiry: Per the records of this test, what outcome belongs to `CCCN(CC1CC1)c1c([N+](=O)[O-])cc(C(F)(F)F)cc1[N+](=O)[O-]` ?
Reply text: NO

Inquiry: Fill in: this test's call for `O=C1c2ccccc2C(=O)C1C(=O)C(c1ccccc1)c1ccccc1` is ___
Reply text: NO

Inquiry: Which outcome did this test record for the compound `O=NN1CCNCC1` ?
Reply text: NO

Inquiry: Any idea what this test logged for `Brc1ccccc1` ?
Reply text: NO

====

Assay: qHTS assay to identify small molecule antagonists of the estrogen receptor alpha (ER-alpha) signaling pathway - cell viability counter screen (AID 743074);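 further: HEK293 cells carrying ER-alpha-UAS-bla reporter stimulated with 17beta-estradiol; nearly all actives have a fitted effect of over 45% in size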
Conditions: ERalpha-bla HEK293 viability, CellTiter-Glo luminescence, 18 h; series mostly up to 69.4 µM
Results filed as inconclusive are left out. Calls of active or inactive are those of the source. The call rests on the fitted dose curve.
Bench note: report the call from label 1 = active, label 0 = inactive

Inquiry: Name the outcome recorded for `O=C(CBr)OCc1ccccc1` in the assay.
Reply text: label 0

Inquiry: Answer briefly: the call reported for `O=[N+]([O-])C(Br)(CO)CO` in this assay.
Reply text: label 0

Inquiry: Can you look up the reported call for `NC(=O)C(Cl)(Cl)Cl` for me?
Reply text: label 0

Inquiry: What was the test verdict on CNP(=O)(OC)Oc1ccc(C(C)(C)C)cc1Cl (centres undefined) ?
Reply text: label 0

Inquiry: Short answer needed: outcome of this test for `O=S(=O)(Cl)c1ccccc1` ?
Reply text: label 0

Inquiry: How did this test come out for `COC(C)(C)CCC[C@H](C)C/C=C/C(C)=C/C(=O)OC(C)C` ?
Reply text: label 0

Inquiry: What was the test verdict on `O=C(Nc1ccccc1)Nc1cnns1` ?
Reply text: label 0

Inquiry: Outcome? CC/C(=N\OC/C=C/Cl)C1=C(O)CC(C2CCOCC2)CC1=O (centres undefined)
Reply text: label 0

Inquiry: Status in this test for `CCOP(=S)(OCC)Oc1cc(Cl)c(Br)cc1Cl` ?
Reply text: label 0

Inquiry: Hi, sorry to bother you, what did the test record for COP(=S)(Oc1cc(Cl)c(Br)cc1Cl)c1ccccc1 (centres undefined) ?
Reply text: label 0

Inquiry: Entry `O=[N+]([O-])c1cc(C(F)(F)F)cc([N+](=O)[O-])c1Cl` : call = ?
Reply text: label 0

Inquiry: Hi, sorry to bother you, what did the test record for CC(=O)NC1CCSC1=O (centres undefined) ?
Reply text: label 0

Inquiry: What outcome does the record of this test show for `C(=NC1CCCCC1)=NC1CCCCC1` ?
Reply text: label 0

Inquiry: How was `CCOC(=O)CBr` classified in this test?
Reply text: label 0

Inquiry: Which outcome was assigned to CN1C(=O)C(O)N=C(c2ccccc2)c2cc(Cl)ccc21 (centres undefined) in this test?
Reply text: label 0

Inquiry: Status in this test for CCCCC(O)(Cn1cncn1)c1ccc(Cl)cc1Cl (centres undefined) ?
Reply text: label 0

Inquiry: # lookup: test call for `Brc1ccccc1`
Reply text: label 0

Inquiry: What did this assay record as the result for `CC(C)(Cl)[N+](=O)[O-]` ?
Reply text: label 0

Inquiry: Recorded call for CC(Cl)C(C)Cl (centres undefined) ?
Reply text: label 0

Inquiry: Kindly provide the recorded test outcome for the following compound: `CCn1cc[n+](C)c1`
Reply text: label 0

Inquiry: Kindly provide the recorded test outcome for the following compound: `O=C(OC1CCCCC1)c1ccccc1C(=O)OC1CCCCC1`
Reply text: label 0

Inquiry: Called result for `O=[N+]([O-])c1ccccc1CCl`
Reply text: label 0

Inquiry: Record request — test call for `O=C(O)C(F)(F)C(F)(F)C(F)(F)C(F)(F)C(F)(F)C(F)(F)C(F)(F)C(F)(F)C(F)(F)F`
Reply text: label 0

Inquiry: What outcome does the record of this test show for NCC(CC(=O)O)c1ccc(Cl)cc1 (centres undefined) ?
Reply text: label 0

Inquiry: // return assay outcome for `C[C@@H]1CC[C@H]2[C@@H](C)C(=O)O[C@@H]3O[C@@]4(C)CC[C@@H]1[C@]32OO4`
Reply text: label 0

Inquiry: For this compound, state the assay outcome: `CCOS(C)(=O)=O`
Reply text: label 0

Inquiry: Write down the call the test reported for this compound. Item: `[CH3][Sn]([CH3])([Cl])[Cl]`
Reply text: label 0

Inquiry: Recorded call for CCC(COC(=O)c1cc(OC)c(OC)c(OC)c1)(c1ccccc1)N(C)C (centres undefined) ?
Reply text: label 0

Inquiry: Please state the recorded outcome for this compound: `O=C(CCl)c1ccc(Cl)cc1Cl`
Reply text: label 1
